Attribute: IC50 activity group, enzyme release assay
TARGET_ENTITY: human C5aR (CD88) (human, UniProt P21730 1-350)
Sequence (looked up): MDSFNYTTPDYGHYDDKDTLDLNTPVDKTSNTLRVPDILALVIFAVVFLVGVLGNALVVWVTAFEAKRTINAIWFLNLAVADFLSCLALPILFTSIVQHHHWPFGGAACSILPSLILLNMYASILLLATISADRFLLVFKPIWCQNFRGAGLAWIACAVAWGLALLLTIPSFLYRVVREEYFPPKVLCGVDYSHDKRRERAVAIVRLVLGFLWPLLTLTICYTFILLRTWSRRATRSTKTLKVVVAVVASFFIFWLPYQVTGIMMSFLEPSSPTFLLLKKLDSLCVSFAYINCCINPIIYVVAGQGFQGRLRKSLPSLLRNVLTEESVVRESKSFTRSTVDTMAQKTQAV
PROTOCOL_TEXT: cell-based or functional assay

                                  substance                             target_entity  value_measured
0   H-Phe-Cit-Pro-hle-Bta-Phe-NH2 (peptide)  human C5aR (CD88) (human, UniProt P21730 1-350)        < 200 nM
1  Ac-Phe-Orn-Hyp-hle-Pff-Phe-NH2 (peptide)  human C5aR (CD88) (human, UniProt P21730 1-350)        < 200 nM
2  Ac-Thr-Phe-Orn-Aze-cha-Bta-Phe-NH2 (peptide)  human C5aR (CD88) (human, UniProt P21730 1-350)         < 50 nM
3  Ac-Phe-Orn-Pro-hle-Pff-Pff-NH2 (peptide)  human C5aR (CD88) (human, UniProt P21730 1-350)        < 200 nM
4  Ac-Phe-Mpa-Pro-cha-Bta-Phe-NH2 (peptide)  human C5aR (CD88) (human, UniProt P21730 1-350)        < 200 nM
5  Ac-Phe-Orn-Aze-cha-Bta-NH-CH2-CH2-Ph (peptide)  human C5aR (CD88) (human, UniProt P21730 1-350)       < 2000 nM
6  Ac-Phe-Cit-Ser-hle-Bta-Phe-NH2 (peptide)  human C5aR (CD88) (human, UniProt P21730 1-350)        < 200 nM
7  Ac-Phe-Orn-Pro-hle-Mff-Phe-NH2 (peptide)  human C5aR (CD88) (human, UniProt P21730 1-350)        < 200 nM
8  Ac-Phe-Orn-Pro-hle-Mmy-Phe-NH2 (peptide)  human C5aR (CD88) (human, UniProt P21730 1-350)        < 200 nM
9  Ac-Phe-Orn-Hyp-hle-Bta-Phe-NH2 (peptide)  human C5aR (CD88) (human, UniProt P21730 1-350)        < 200 nM

As a next step, examine the substance that follows.
Data request: Name the recorded IC50 activity group, enzyme release assay of the item Ac-Phe-Orn-Pro-cha-Bta-1Ni-NH2 (peptide) in your answer.
Data returned: < 200 nM

Data provenance is patent US7727960B2.
